system: NK-92 (IL-2 2.5 ng/mL); experiment: percent inhibition of viability; higher = more inhibition; conditions: 72 h; 10000 nM;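 also: normalised to DMSO-only wells as negative and benzethonium chloride as positive control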
Output satisfied for records whose percent inhibition of viability is lower than 80%, not satisfied for records at or above 80%.

Compound: CC(=O)NCC(=O)N1[C@@H]2CC[C@H]1c1ccc(Nc3ncc(C(F)(F)F)c(NC4CCC4)n3)cc12 (max concentration tested 10000 nM)
Class label: not satisfied
//
Compound: COc1cc(O)c2c(c1)/C=C/C[C@H](O)[C@H](O)C(=O)/C=C\C[C@H](C)OC2=O [(5Z)-7-Oxozeaenol] (max concentration tested 10000 nM)
Class label: not satisfied
//
Compound: COc1cc(Nc2ncc3c(n2)-c2ccc(Cl)cc2C(c2c(F)cccc2OC)=NC3)ccc1C(=O)O [Alisertib] (max concentration tested 10000 nM)
Class label: satisfied
//
Compound: CN(c1ncccc1CNc1nc(Nc2ccc3c(c2)CC(=O)N3)ncc1C(F)(F)F)S(C)(=O)=O (max concentration tested 10000 nM)
Class label: not satisfied
//
Compound: S=c1[nH]cnc2nc[nH]c12 [Mercaptopurine] (max concentration tested 10000 nM)
Class label: satisfied
//
Compound: CC(C)C[C@@H](C(=O)N[C@H](C(=O)OC1CCCC1)c1ccccc1)[C@H](O)C(=O)NO [Tosedostat] (max concentration tested 10000 nM)
Class label: satisfied
//
Compound: CN1CCN(c2cc(C(=O)Nc3ccc4c(c3)-c3c(c(C(N)=O)nn3-c3ccc(F)cc3)CC4)c(Cl)cn2)CC1 [PHA 408] (max concentration tested 10000 nM)
Class label: not satisfied
//
Compound: Cc1cc(C(=O)NOCCO)c(Nc2ccc(I)cc2F)n(C)c1=O [AZD-8330] (max concentration tested 10000 nM)
Class label: satisfied
//
Compound: C#Cc1cccc(Nc2ncnc3cc4c(cc23)OCCOCCOCCO4)c1 [Icotinib] (max concentration tested 10000 nM)
Class label: satisfied
//
Compound: O=C1NC(=O)/C(=C/c2ccc3nccc(-c4ccncc4)c3c2)S1 (max concentration tested 10000 nM)
Class label: satisfied

====

Reported percent inhibition of viability values for the following compounds.
test system: NK-YS (IL-2 2.5 ng/mL); assay: percent inhibition of viability; higher = more inhibition; conditions: 72 h; 10 nM

Compound: CCn1c(-c2nonc2N)nc2cnc(Oc3cccc(NC(=O)c4ccc(OCCN5CCOCC5)cc4)c3)cc21 (max concentration tested 10000 nM)
Readout unit: %
percent inhibition of viability: -0.53
--
Compound: COc1cc(Nc2ncc3c(n2)-c2ccc(Cl)cc2C(c2c(F)cccc2OC)=NC3)ccc1C(=O)O [Alisertib] (max concentration tested 10000 nM)
Readout unit: %
percent inhibition of viability: 18.6
--
Compound: CN1CC[C@H](c2c(O)cc(O)c3c(=O)cc(-c4ccccc4Cl)oc23)[C@H](O)C1 [Alvocidib] (max concentration tested 10000 nM)
Readout unit: %
percent inhibition of viability: 3.87
--
Compound: CC(C)C[C@@H](C(=O)N[C@H](C(=O)OC1CCCC1)c1ccccc1)[C@H](O)C(=O)NO [Tosedostat] (max concentration tested 10000 nM)
Readout unit: %
percent inhibition of viability: 7.39
--
Compound: Cc1sc2c(c1C)C(c1ccc(Cl)cc1)=N[C@@H](CC(=O)Nc1ccc(O)cc1)c1nnc(C)n1-2 [OTX015] (max concentration tested 10000 nM)
Readout unit: %
percent inhibition of viability: 1.91
--
Compound: CC(C)Oc1ccc(C(=O)N[C@H](CNC(=O)CN(C)C)Cc2ccc(-c3cn4cccc([C@H](C)O)c4n3)cc2)cc1Cl (max concentration tested 10000 nM)
Readout unit: %
percent inhibition of viability: 1.87
--
Compound: COc1cc(Nc2ncc(F)c(Nc3ccc4c(n3)NC(=O)C(C)(C)O4)n2)cc(OC)c1OC [Tamatinib] (max concentration tested 10000 nM)
Readout unit: %
percent inhibition of viability: -3.13
--
Compound: N#CC(c1ccnc(OCc2ccc(CN3CCOCC3)cc2)n1)c1nc2ccccc2s1 (stereo unspecified) [Bentamapimod] (max concentration tested 10000 nM)
Readout unit: %
percent inhibition of viability: -3.72
--
Compound: C=CC[C@@H]1/C=C(\C)C[C@H](C)C[C@H](OC)[C@H]2O[C@@](O)(C(=O)C(=O)N3CCCC[C@H]3C(=O)O[C@H](/C(C)=C/[C@@H]3CC[C@@H](O)[C@H](OC)C3)[C@H](C)[C@@H](O)CC1=O)[C@H](C)C[C@@H]2OC [Tacrolimus] (max concentration tested 10000 nM)
Readout unit: %
percent inhibition of viability: -3.09
--
Compound: COCC1(CO)C(=O)C2CCN1CC2 (stereo unspecified) [APR-246] (max concentration tested 10000 nM)
Readout unit: %
percent inhibition of viability: 1.41
--
Compound: CNC(=O)c1ccc(N2C(=S)N(c3ccc(C#N)c(C(F)(F)F)c3)C(=O)C2(C)C)cc1F [Enzalutamide] (max concentration tested 10000 nM)
Readout unit: %
percent inhibition of viability: -3.69
--
Compound: CCS(=O)(=O)c1cccc(-c2cc(C(=O)NC3CCN(C)CC3)c(C)c3[nH]c4ncc(C)cc4c23)c1 [TAK-901] (max concentration tested 1000 nM)
Readout unit: %
percent inhibition of viability: 5.54
--
Compound: O=C1NC(=O)/C(=C/c2ccc3nccc(-c4ccncc4)c3c2)S1 (max concentration tested 10000 nM)
Readout unit: %
percent inhibition of viability: -5.14
--
Compound: COc1cc([C@@H]2c3cc4c(cc3[C@@H](O[C@@H]3O[C@@H]5CO[C@@H](c6cccs6)O[C@H]5[C@H](O)[C@H]3O)[C@H]3COC(=O)[C@H]23)OCO4)cc(OC)c1O [Teniposide] (max concentration tested 10000 nM)
Readout unit: %
percent inhibition of viability: 29.4
--
Compound: CO[C@H]1C[C@@H]2CC[C@@H](C)[C@@](O)(O2)C(=O)C(=O)N2CCCC[C@H]2C(=O)O[C@H]([C@H](C)C[C@@H]2CC[C@@H](OC(=O)C(C)(CO)CO)[C@H](OC)C2)CC(=O)[C@H](C)/C=C(\C)[C@@H](O)[C@@H](OC)C(=O)[C@H](C)C[C@H](C)/C=C/C=C/C=C/1C [Temsirolimus] (max concentration tested 100 nM)
Readout unit: %
percent inhibition of viability: 54.4
--
Compound: O=C(O)c1ccc(O)c2ncccc12 [IOX-1] (max concentration tested 100000 nM)
Readout unit: %
percent inhibition of viability: -2.09
--
Compound: C[C@H]1C[C@@H]2[C@H]([C@@H](O)C[C@@]3(C)[C@H]2CC[C@]3(O)C(=O)CO)[C@@]2(C)C=CC(=O)C=C12 [Methylprednisolone] (max concentration tested 10000 nM)
Readout unit: %
percent inhibition of viability: -4.6
--
Compound: COc1cccc2c1c(O)c(C(=O)N(C)c1ccc(C(F)(F)F)cc1)c(=O)n2C [Tasquinimod] (max concentration tested 10000 nM)
Readout unit: %
percent inhibition of viability: 4.34
--
Compound: CN(c1ncccc1CNc1nc(Nc2ccc3c(c2)CC(=O)N3)ncc1C(F)(F)F)S(C)(=O)=O (max concentration tested 10000 nM)
Readout unit: %
percent inhibition of viability: -3.29
--
Compound: CCn1c(-c2nonc2N)nc2c(C#CC(C)(C)O)ncc(OC[C@H]3CCCNC3)c21 (max concentration tested 10000 nM)
Readout unit: %
percent inhibition of viability: 0.74
--
Compound: CCOC(=O)CCNc1cc(N2CCc3ccccc3CC2)nc(-c2ccccn2)n1 [GSK-J4] (max concentration tested 100000 nM)
Readout unit: %
percent inhibition of viability: -1.22
